The measurements presented in this section are drawn from patent US20100280227A1.

List of kon values.
# target.system: T1, variant human BR3-Fc fusion
# T1 construct: produced in CHO cells; also called vBR3-Fc; vhBR3-Fc
# method.summary: SPR, vBR3-Fc on chip;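 note: Anti-BR3 antibodies passed over chip-bound BR3-Fc in PBS with 0.05% polysorbate 20, on and off rates fitted together globally to a 1:1 binding model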
I only need the number, in M⁻¹ s⁻¹, no unit after it.

{"binder": "Hu2.1-94 Fab (Fab, V domains shown, Fab) VH: EVQLVESGGGLVQPGGSLRLSCAASGDSITRGYWNWVRQAPGKGLEWVGYINYSGTTYYNPSLKSRFTISRDTSKNTLYLQMNSLRAEDTAVYYCATSHNTGEMDYWGQGTLVTVSS VL: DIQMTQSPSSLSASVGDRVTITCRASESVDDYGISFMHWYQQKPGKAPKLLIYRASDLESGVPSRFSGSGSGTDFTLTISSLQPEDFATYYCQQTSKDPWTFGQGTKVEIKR", "kon (M⁻¹ s⁻¹)": 480000}
{"binder": "Hu11G9-36 IgG (antibody, V domains shown, humanized IgG) VH: EVQLVESGGGLVQPGGSLRLSCAASGDSINFGYWNWVRQAPGKGLEWVGYISYSGSTYYNPSLKSRFTISRDTSKNTFYLQMNSLRAEDTAVYYCAALNDLFLYFDVWGQGTLVTVSS VL: DIQMTQSPSSLSASVGDRVTITCRSSQSLVHSNGNTYLHWYQQKPGKAPKLLIYKVSNRFSGVPSRFSGSGSGTDFTLTISSLQPEDFATYYCSQSTHVPPFTFGQGTKVEIKR", "kon (M⁻¹ s⁻¹)": 576000}
{"binder": "Hu2.1-94 IgG (antibody, V domains shown, humanized IgG; also called h2.1-94) VH: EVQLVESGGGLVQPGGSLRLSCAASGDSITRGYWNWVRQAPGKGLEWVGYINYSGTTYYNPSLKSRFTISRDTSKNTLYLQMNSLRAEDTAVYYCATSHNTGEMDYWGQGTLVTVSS VL: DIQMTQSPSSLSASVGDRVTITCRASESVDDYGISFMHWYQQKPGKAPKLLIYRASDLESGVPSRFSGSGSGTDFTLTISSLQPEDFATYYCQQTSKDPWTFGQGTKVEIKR", "kon (M⁻¹ s⁻¹)": 477000}
{"binder": "chimeric 11G9 IgG (antibody, V domains shown, also called Ch 11G9 IgG) VH: DVQLQESGPSLVKPSQTLSLTCSVTGDSITSGYWNWIRKFPGNKLEYMGYISYSGSTYYNPSLKSRISITRDTSKNQFYLQLLSVTTEDTATYYCAGLDGLYWYFDVWGAGTLVTVSS VL: DIVMTQTPLSLPVSLGDQASISCRSSQSLVHSNGNTYLHWYLQKPGQSPKLLIYKVSNRFSGVPDRFSGSGSGTDFTLKISRVEAEDLGVYFCSQSTHVPPFTFGSGT", "kon (M⁻¹ s⁻¹)": 780000}
{"binder": "Hu9.1-88 IgG (antibody, V domains shown, humanized IgG; also called h9.1-88) VH: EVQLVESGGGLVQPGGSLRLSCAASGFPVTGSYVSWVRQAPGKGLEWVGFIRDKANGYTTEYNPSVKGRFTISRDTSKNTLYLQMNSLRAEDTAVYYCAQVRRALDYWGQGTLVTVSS VL: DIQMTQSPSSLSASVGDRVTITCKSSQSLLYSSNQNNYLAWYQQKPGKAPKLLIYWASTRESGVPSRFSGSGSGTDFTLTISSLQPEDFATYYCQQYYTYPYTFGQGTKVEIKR", "kon (M⁻¹ s⁻¹)": "1.3e+06"}
{"binder": "Hu9.1-RF Fab (Fab, V domains shown) VH: EVQLVESGGGLVQPGGSLRLSCAASGFTVTAYYMSWVRQAPGKGLEWVGFIRDKANGYTTEYNPSVKGRFTISRDTSKNTFYLQMNSLRAEDTAVYYCAQVRRALDYWGQGTLVTVSS VL: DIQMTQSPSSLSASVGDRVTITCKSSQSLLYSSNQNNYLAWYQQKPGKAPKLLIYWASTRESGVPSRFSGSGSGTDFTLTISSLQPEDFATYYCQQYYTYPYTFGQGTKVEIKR", "kon (M⁻¹ s⁻¹)": 290000}

Consider the record given below.
In: Entry chimeric 2.1 IgG (antibody, V domains shown, also called Ch 2.1 IgG; ch 2.1) VH: EVQLQESGPSLVKPSQTLSLTCSVTGDSITRGYWNWIRKFPGNKLEFMGYINYSGTTYYNPSLKSRISITRDTSKNQYYLQLNSVTTEDTATYYCATPHTYGAMDYWGQGTTLTVSA VL: DIVLTQSPVSLAVSLGQRATISCRASESVDDYGISFMHWYQQKPGQPPKLLIYRASDLESGIPARFSGSGSGTDFTLTINPVETDDVAIYYCQQTSKDPWTFGGGT has what kon?
Out: 980000
